test: CCTE_Shafer_MEA_acute_burst_percentage_std: CCTE's Neural Acute Assay for Standard Deviation of Burst Percentage, Shafer Lab (AID 2284018);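 further: fitted in the negative direction so actives lower burst percentage SD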
The source made the active and inactive calls. How the source made its calls: active means hit-call score of the fitted dose curve at least 0.9, where 1 is the maximum; inactive means score below 0.9.
Classes used: true for active, false for inactive

[[record]]
compound = "O=C(c1ccccc1)C1CCCCC1"
assigned_label = "false"

[[record]]
compound = "O=C(O)c1ccccc1"
assigned_label = "false"

[[record]]
compound = "CC(C)CCCCCCc1ccc(O)cc1"
assigned_label = "true"

[[record]]
compound = "CC(C)(C)[C@@H](O)[C@@H](Cc1ccc(Cl)cc1)n1cncn1"
assigned_label = "false"

[[record]]
compound = "CCCCC(CC)CN1C(=O)C2C3C=CC(C3)C2C1=O (configuration not stated)"
assigned_label = "true"

[[record]]
compound = "CC1(C)C(C=C(Cl)Cl)C1C(=O)OCc1cccc(Oc2ccccc2)c1 (configuration not stated)"
assigned_label = "false"

[[record]]
compound = "CCCN(CCC)c1c([N+](=O)[O-])cc(C(F)(F)F)c(N)c1[N+](=O)[O-]"
assigned_label = "true"


---

assay: CCTE_Mundy_HCI_Cortical_Synap_Neur_Matur_NeuronCount: CCTE's Synaptogenesis and Neurite Maturation Assay in rat cortical cells for Neuron Count, Mundy Lab (AID 2284242)
Records with an inconclusive call do not appear. Calls of active or inactive are those of the source. The calls were made as follows: active = hit-call score of the fitted dose curve at least 0.9, where 1 is the maximum; inconclusive = response in the unintended direction; inactive = score below 0.9.
Classes used: true = active, false = inactive

[[record]]
compound = "C#CCOC(=O)[C@@H](C)Oc1ccc(Oc2ncc(Cl)cc2F)cc1"
assigned_label = "false"

[[record]]
compound = "CC1(C)C(C=C(Cl)Cl)C1C(=O)OCc1cccc(Oc2ccccc2)c1 (centres undefined)"
assigned_label = "true"

[[record]]
compound = "S=C([S-])NCCNC(=S)[S-].[Mn+2]"
assigned_label = "false"

[[record]]
compound = "CC(C)(c1ccc(O)cc1)c1ccc(O)cc1"
assigned_label = "false"


---

read-out: Thrombomodulin, THBD (gene 7056); experiment: BSK_3C_Thrombomodulin: BioMAP Diversity Plus: 3C Assay for Thrombomodulin Biomarker Activity (AID 2283029); settings: primary human endothelial cells (HUVEC); actives raise or lower the signal
The source made the active and inactive calls. Rule for the calls: active = hit-call score of the fitted dose curve at least 0.9, where 1 is the maximum; inactive = score below 0.9.
Classes used: true = active, false = inactive

[[record]]
compound = "COc1c(Cl)ccc(Cl)c1C(=O)O"
assigned_label = "false"

[[record]]
compound = "CCCCOCCOCCOCc1cc2c(cc1CCC)OCO2"
assigned_label = "false"

[[record]]
compound = "CC1(C)C(C=C(Cl)Cl)C1C(=O)OCc1cccc(Oc2ccccc2)c1 (stereo not given)"
assigned_label = "false"

[[record]]
compound = "COC(=O)c1ccccc1S(=O)(=O)NC(=O)Nc1nc(OC(F)F)cc(OC(F)F)n1"
assigned_label = "false"

[[record]]
compound = "CC(=O)S[C@@H]1CC2=CC(=O)CC[C@]2(C)[C@H]2CC[C@@]3(C)[C@@H](CC[C@@]34CCC(=O)O4)[C@H]12"
assigned_label = "false"

[[record]]
compound = "CCCN(CCC)c1c([N+](=O)[O-])cc(C(F)(F)F)c(N)c1[N+](=O)[O-]"
assigned_label = "true"

[[record]]
compound = "CCOC(=O)COc1cc(-n2ncc(C(F)(F)F)c(C)c2=O)c(F)cc1Cl"
assigned_label = "false"

[[record]]
compound = "COCCO"
assigned_label = "false"

[[record]]
compound = "C#C[C@]1(O)CC[C@H]2[C@@H]3CCC4=CC(=O)CC[C@@H]4[C@H]3CC[C@@]21CC"
assigned_label = "false"

[[record]]
compound = "CCCCOC(=O)C(C)Oc1ccc(Oc2ccc(C(F)(F)F)cn2)cc1 (stereo not given)"
assigned_label = "false"

